Tested on: A549/ATCC NSCLC
Assay notes: NCI-60 one-dose screen, 48 h
Experimental setup: 10 µM unless noted
The panel holds about 83,000 compounds, 20% with a hit somewhere; the sample as a whole holds those more often. Calls of active or inactive are those of the source. How the source made its calls: active means growth percent below 10; inactive means the rest.
Classes used: 1 for active, -1 for inactive

- Compound: "O=C1NC(=O)C(CSc2ccccc2)(c2ccccc2)N1 (centres undefined)"
  Class name: -1
- Compound: "CCOC(=O)C1=C(C)N2C(=NC3=C(CCCC/C3=C\\c3ccccc3)C2c2ccccc2)S1 (centres undefined)"
  Class name: -1
- Compound: "Oc1ccc(Cl)cc1CNc1nc2ccccc2[nH]1"
  Class name: 1
- Compound: "CCCN1CCN(c2ccc3nc(-c4ccc5nc(-c6ccc(C(F)(F)F)cc6)[nH]c5c4)[nH]c3c2)CC1"
  Class name: 1
- Compound: "Nc1nc(-c2ccnc(Cl)c2)nn1-c1nc2ccccc2s1"
  Class name: -1
- Compound: "COC(=O)c1c2c(c(C)[n+]([O-])c1C)C(=O)C=C(NCc1ccc(F)cc1)C2=O"
  Class name: 1
- Compound: "O=C(Nc1ccc(Cl)c(Cl)c1)NC(CO)(CO)CO"
  Class name: -1
- Compound: "NC(=O)c1cccc(-n2ccc3cc(NC(=O)Nc4ccc(Cl)c(Cl)c4)ccc32)n1"
  Class name: -1
- Compound: "CCCCCCCCCCCCSC1=CC(=O)C=CC1=O"
  Class name: -1

====

Tested on: UACC-62 melanoma
Assay notes: NCI-60 one-dose screen, 48 h (100 = growth as untreated, 0 = no growth, -100 = all killed)
Experimental setup: 10 µM unless noted
The panel holds about 83,000 compounds, 20% with a hit somewhere; the sample as a whole holds those more often. The source made the active and inactive calls. How the source made its calls: active means growth percent below 10; inactive means the rest.

- Molecule: "O=C(Nc1ccc(F)cc1)c1ccc(C(=O)Nc2ccc(F)cc2)cc1"
  growth: "107% (inactive)"
- Molecule: "CC1(C)CC(=O)C2=C(C1)Nc1cc3c(cc1C2c1ccc(F)cc1)OCO3 (stereo not given)"
  growth: "98.7% (inactive)"
- Molecule: "CC(C)(C)[Si](C)(C)OC1[C@@H](CNC(=O)NC(=O)CCl)O[C@@H](n2cnc3c(N)ncnc32)[C@H]1O[Si](C)(C)C(C)(C)C (stereo not given in full)"
  growth: "-75% (active)"
- Molecule: "COc1cccc(C2CC(=O)Nc3cc4c(cc32)OCO4)c1OC (stereo not given)"
  growth: "96.1% (inactive)"
- Molecule: "Cc1ccc(C2SCC(=O)N2NC(=O)c2[nH]c3ccc(F)cc3c2-c2ccccc2)cc1 (stereo not given)"
  growth: "78.1% (inactive)"
- Molecule: "COc1ccc(/C=C2\\Oc3cc(C)c(Cl)cc3C2=O)cc1OC"
  growth: "87.3% (inactive)"
- Molecule: "Clc1ccc(C2=NN(c3ccccc3)[C@H](c3cn(-c4ccccc4)nc3-c3ccccc3)C2)cc1"
  growth: "107% (inactive)"
- Molecule: "C=CC[P+](c1ccccc1)(c1ccccc1)c1ccccc1"
  growth: "42% (inactive)"
- Molecule: "CCN(CC)CCCNc1ccc(C)c2sc3ccccc3c(=O)c12"
  growth: "-49.2% (active)"
- Molecule: "CC1=C(C/C=C(\\C)CCC[C@H](C)CCC[C@H](C)CCCC(C)C)C(=O)c2ccccc2C1=O"
  growth: "105% (inactive)"
- Molecule: "c1ccc(-c2n(Cc3ccc4ccccc4c3)c3ccccc3[n+]2Cc2ccc3ccccc3c2)cc1"
  growth: "-82.9% (active)"
- Molecule: "O=C(NCc1cccnc1)c1ccc([N+](=O)[O-])o1"
  growth: "-67.9% (active)"
- Molecule: "Cn1c2ccccc2c2nn(Cc3ccccc3)c(=O)nc21"
  growth: "108% (inactive)"
- Molecule: "CC(=O)OC[C@]1(C)C=C2C(=O)[C@](C)(O)C3(CC3)C(C)=C2[C@H]1OC(C)=O"
  growth: "103% (inactive)"
- Molecule: "O=[N+]([O-])c1cc2c(cc1Br)C1C(C3C2C(Cl)(Cl)C(Cl)=C(Cl)C3(Cl)Cl)C(Cl)(Cl)C(Cl)=C(Cl)C1(Cl)Cl (stereo not given)"
  growth: "87.1% (inactive)"
- Molecule: "Cc1ccc2c(c1)c(Sc1ccc(C(=O)NO)cc1)c1n2CN(C)CC1"
  growth: "-1.71% (active)"
- Molecule: "O/N=C/c1cccs1"
  growth: "119% (inactive)"
- Molecule: "COc1ccc(OC2=C(C#N)C(=N)N3c4ccccc4Sc4ccccc4C3N2)cc1 (stereo not given)"
  growth: "69.6% (inactive)"
- Molecule: "COc1ccc(/C=C(\\C#N)c2ccc(OC)cc2)cc1"
  growth: "54.5% (inactive)"
- Molecule: "COc1cc2nc(N3CCC[C@H](NC4=CC(=O)c5ccccc5C4=O)C3)nc(N)c2cc1OC"
  growth: "-87.9% (active)"

Hey, just so you know, these numbers are from PubChem BioAssay (NCI).
